Here we list compounds with their recorded pKd when tested on human dopamine transporter (hDAT) (Homo sapiens, UniProt Q01959).
Sequence (Q01959 whole entry): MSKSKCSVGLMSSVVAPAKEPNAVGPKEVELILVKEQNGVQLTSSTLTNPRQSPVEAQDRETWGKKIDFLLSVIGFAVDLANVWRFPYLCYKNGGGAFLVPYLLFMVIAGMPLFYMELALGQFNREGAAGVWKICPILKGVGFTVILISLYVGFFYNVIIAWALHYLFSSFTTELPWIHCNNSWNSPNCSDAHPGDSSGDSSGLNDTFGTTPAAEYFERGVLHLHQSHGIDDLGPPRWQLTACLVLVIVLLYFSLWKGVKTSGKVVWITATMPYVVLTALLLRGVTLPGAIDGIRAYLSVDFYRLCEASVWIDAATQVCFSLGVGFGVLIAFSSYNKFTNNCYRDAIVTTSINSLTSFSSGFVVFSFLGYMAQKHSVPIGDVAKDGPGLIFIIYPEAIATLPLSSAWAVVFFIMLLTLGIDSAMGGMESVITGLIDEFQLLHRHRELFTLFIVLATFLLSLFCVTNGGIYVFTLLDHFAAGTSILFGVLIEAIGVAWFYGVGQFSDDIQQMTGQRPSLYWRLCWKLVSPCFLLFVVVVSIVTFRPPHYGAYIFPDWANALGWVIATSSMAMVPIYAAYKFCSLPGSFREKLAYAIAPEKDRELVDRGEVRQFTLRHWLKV
As a rule, pKd stands for the negative log10 of the concentration, concentration in M.

The following compounds have reported results that may help.
>  <COMPOUND>
CC(C)[C@H](O)[C@@H](CN(C)C)c1ccc2ccccc2c1 [Compound D1]

>  <RECORDED_VALUE>
6.82

$$$$
>  <COMPOUND>
CNCC(c1ccc2ccccc2c1)C(O)c1ccccc1 (racemic) [Compound B]

>  <RECORDED_VALUE>
6.41

$$$$
>  <COMPOUND>
CNCC(c1ccc2ccccc2c1)C(O)c1ccccc1 (racemic) [Compound A]

>  <RECORDED_VALUE>
6.89

$$$$

Query: // fetch human dopamine transporter (hDAT) (Homo sapiens, UniProt Q01959) pKd for CC(C)[C@@H](O)[C@H](CN(C)C)c1ccc2ccccc2c1 [Compound D2]
Result: 6.10
